Target: α-glucosidase
Assay: α-glucosidase inhibitor screening assay (PNPG substrate, absorbance at 405 nm)
Settings: means ± SD (n = 3), phosphate buffer pH 6.8, 37 °C, 1 h, Reed and Muench method, read-out: IC50 (one-half maximal inhibitory concentration to α-glucosidase)
Experimental: The α-glucosidase inhibitor screening assay was conducted as reported previously and slightly modified. […] A microplate reader was recorded by the absorbance at 405 nm. No enzyme as the blank readings were subtracted from each well and compared to the control. […]
Outcome Measure: IC50 (nM)
Provide only the numeric value, understood in nM.

# Molecule, Display Unit, IC50
measured = [
    ("O=C(OC[C@H]1O[C@@H](OC(=O)c2cc(O)c(O)c(O)c2)[C@H](O)[C@@H](OC(=O)c2cc(O)c(O)c(O)c2)[C@@H]1O)c1cc(O)c(O)c(O)c1", "nM", 2280),
    ("O=C(O[C@@H]1O[C@@H]2COC(=O)c3cc(O)c(O)c(O)c3-c3c(cc(O)c(O)c3O)C(=O)O[C@H]([C@H]1O)[C@@H]2O)c1cc(O)c(O)c(O)c1", "nM", 3120),
    ("O=C1O[C@H]2[C@@H]3OC(=O)c4cc(O)c(O)c(O)c4-c4c(O)c(O)c5oc(=O)c6c(c(O)c(O)c7oc(=O)c4c5c76)-c4c(cc(O)c(O)c4O)C(=O)OC[C@H]3OC(O)[C@@H]2OC(=O)c2cc(O)c(O)c(O)c2-c2c1cc(O)c(O)c2O (mixture of isomers)", "nM", 270),
]

Please look at the following molecule next.
Incoming: Endpoint output: IC50 of O=C(OC[C@H]1O[C@@H](OC(=O)c2cc(O)c(O)c(O)c2)[C@H](OC(=O)c2cc(O)c(O)c(O)c2)[C@@H](OC(=O)c2cc(O)c(O)c(O)c2)[C@@H]1OC(=O)c1cc(O)c(O)c(O)c1)c1cc(O)c(O)c(O)c1 . Value?
Outgoing: 100
